# Tested on: OVCAR-3 ovarian
# procedure-details: NCI-60 one-dose screen, 48 h (100 = growth as untreated, 0 = no growth, -100 = all killed)
# assay-conditions: 10 µM
The panel holds about 83,000 compounds, 20% with a hit somewhere; the sample as a whole holds those more often.
experimental-readout: growth (%)
Unit % implied. Number only.

Value of growth reported for the compound COc1ccc(N(C)c2ncnc3occ(C)c23)cc1 is -39.9

The recorded growth for Clc1ccc(C2=NN=C3C(Cc4ccccc4)=Nc4ccccc4N3C2)cc1 is 65.8

The reported growth of the compound Clc1nc2ccc(Br)cc2cc1-c1nc2ccccc2[nH]1 was 95.5

// field: growth; key: CNC(=O)c1cc(Oc2ccc3c(c2)sc2nc(-c4ccc(NC(=O)Nc5ccc(Cl)c(C(F)(F)F)c5)cc4)cn23)ccn1 ; value = 86.9

// growth value for NC1=NC(c2ccccc2)C2=C(N1)/C(=C/c1ccccc1)CCC2 (stereo not given) : 81.6

For reference, reported growth for CC(CN(C)C)Oc1ccc(OC(C)CN(C)C)c2c1C(=O)c1ccccc1C2=O (stereo not given) stands at 55

What the record says about CC(C)N(CCOc1ccc(-c2nc3sccn3c2-c2ccnc(S(C)(=O)=O)n2)cc1)C(C)C : growth is 72.8

# growth (compound: CCN(CC)CCCC(C)Nc1c2ccc(Cl)cc2nc2ccc(OC)cc12 (stereo not given) ) is 31

For reference, reported growth for O=C1NC(=O)c2c(CCCSc3nc4ccccc4c(=O)n3CCc3ccccc3)cccc21 stands at 115

The compound identified as COc1cc2cc(Oc3ccc(NC(=O)c4ccccc4)cc3)c(C)nc2cc1OC registered its growth at 83.4

---

# Tested on: SR leukemia
# procedure-details: NCI-60 one-dose screen, 48 h (100 = growth as untreated, 0 = no growth, -100 = all killed)
# assay-conditions: 10 µM
Compounds without any hit were thinned out: in the full panel of roughly 83,000, 20% have a hit.
experimental-readout: growth (%)
Please respond with the number in % and leave the unit unwritten.

Kindly note: SR leukemia, Nc1nc(Cl)nc2c1ncn2C1O[C@H](CO)[C@@H](O)[C@@H]1F (stereo not given in full) , growth value reported: 7.7

Hey, SR leukemia data for COc1ccc(/C(C#N)=C/c2cccc(OC)c2OC)cc1 : growth came out at 41.2

The molecule O=C(NCCNC(=O)c1ccc(F)cc1)Nc1ccc(-n2cc(-c3ccncc3)c(-c3ccc(Cl)c(O)c3)n2)cc1 on SR leukemia: growth was -0.62

The measured growth that N#Cc1c(-c2ccc(Cl)cc2)csc1NC(=O)Nc1ccc(Cl)c(C(F)(F)F)c1 showed for SR leukemia is -15.1

Recorded growth for COc1ccc2nc3cc(Cl)ccc3c(NCCCNCCO)c2c1 on SR leukemia was -8.29

Measured growth for this entry CN1CCN(c2cc3c(cc2F)c(=O)c(C(=O)O)cn3-c2ccc(F)cc2)CC1 on SR leukemia: 96.4

Here COc1cc(-c2nn(-c3ccc(NC(=O)NCCCNC(=O)c4ccccc4)cc3)cc2-c2ccncc2)ccc1Cl was tested on SR leukemia, and its growth came to 20.2

The recorded growth with SR leukemia for CC(C)(C)OC(=O)N1CCc2c(sc3ncnc(N/N=C/c4ccccc4Br)c23)C1 was 39.4

For CS(=O)(=O)c1nccc(-c2c(-c3cccc(OCc4ccccc4)c3)nc3sccn23)n1 on SR leukemia, measured growth was 37.9

I looked up CCOC(=O)c1cc(C(=O)c2cc(OC)cc(OC)c2)n2ncc3ccccc3c12 and its growth for SR leukemia was 4.68

Ref: PubChem BioAssay (NCI)
